test system: Noggin (protein binding on small-molecule microarray); assay: Noggin binders on small-molecule microarray, primary screen, biochemical, 635/667 nm fluorescence (AID 1095); details: 635 nm fluorescence, higher = more signal;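 further: score merges 667 nm feature fluorescence with signal to noise over triplicate slides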
Kindly supply the reported composite z-score values for the records listed here.

# Compound, Endpoint Value
records = [
    ("CCOC(=CC(=O)OC)CC(O)c1cccc(Cl)c1 (stereo not drawn)", -0.673),
    ("COC(=O)C[C@H]1O[C@]2(C(=O)N(C)c3ccccc32)[C@@H](C)[C@@H]1[Si](C)(C)c1ccc(C)cc1", 1.27),
]

What the record says about `CCC[C@@H]1C[C@@]1(CCC)[C@@H](NP(=O)(c1ccccc1)c1ccccc1)c1ccc(Cl)cc1` : composite z-score is 0.112
